Every entry's value here was drawn from ChEMBL document CHEMBL1137827.

Assignment: determine reported pIC50 for the given compounds.
assay.system: UniProtKB O76074
experimental.protocol: In vitro inhibition of human Phosphodiesterase 5
pIC50: −log10 of the molar value.

What does the data say about its pIC50? Entry: `O=C1Nc2c(Cl)cc(-c3ccccn3)cc2C2(CCCCC2)N1`
4.16

What does the data say about its pIC50? Entry: `CN(C)CCCNC(=O)c1ccc(-c2cc(Cl)c3c(c2)C2(CCCCC2)NC(=O)N3)cc1`
< 4.29

What does the data say about its pIC50? Entry: `CN1CCN(C(=O)c2ccccc2-c2cc(Cl)c3c(c2)C2(CCCCC2)NC(=O)N3)CC1`
< 4.00

What does the data say about its pIC50? Entry: `CN(C)CCNC(=O)c1cccc(-c2cc(Cl)c3c(c2)C2(CCCCC2)NC(=O)N3)c1`
< 4.00

What does the data say about its pIC50? Entry: `CN(C)CCNC(=O)c1ccc(-c2cc(Cl)c3c(c2)C2(CCCCC2)NC(=O)N3)cc1`
< 4.17

* * *

assay.system: High affinity 3',5'-cyclic-AMP phosphodiesterase 7A (Homo sapiens, UniProt Q13946)
Sequence (Q13946 whole entry): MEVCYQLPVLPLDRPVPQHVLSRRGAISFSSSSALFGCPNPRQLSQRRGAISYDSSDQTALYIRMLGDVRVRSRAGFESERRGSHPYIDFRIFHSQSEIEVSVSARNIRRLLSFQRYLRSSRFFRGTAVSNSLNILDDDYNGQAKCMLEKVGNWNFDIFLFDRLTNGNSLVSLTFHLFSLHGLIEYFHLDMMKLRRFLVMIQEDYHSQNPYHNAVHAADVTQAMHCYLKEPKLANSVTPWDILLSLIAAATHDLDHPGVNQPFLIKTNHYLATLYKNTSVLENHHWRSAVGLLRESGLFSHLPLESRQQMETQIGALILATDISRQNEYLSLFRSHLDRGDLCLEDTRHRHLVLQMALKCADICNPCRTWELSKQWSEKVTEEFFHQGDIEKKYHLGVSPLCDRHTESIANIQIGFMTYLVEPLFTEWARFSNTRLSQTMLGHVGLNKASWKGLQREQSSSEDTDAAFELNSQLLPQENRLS
experimental.protocol: Inhibition of human Phosphodiesterase 7A1 expressed in baculovirus infected Sf9 cells
readout.kind: IC50 (nM)
Respond with the bare value in nM.

What does the data say about its IC50? Entry: `COc1ccc2c(c1)NC(=O)NC21CCCCC1`
9500

What does the data say about its IC50? Entry: `O=C1Nc2c(Br)cccc2C2(CCCCCC2)N1`
60

What does the data say about its IC50? Entry: `O=C1Nc2ccc(Cl)cc2C2(CCCCC2)N1`
4800

What does the data say about its IC50? Entry: `Cc1cc(Cl)c2c(c1)C1(CCCCC1)NC(=O)N2`
160

What does the data say about its IC50? Entry: `CCCC1(CCC)NC(=O)Nc2c(Br)cccc21`
2660

What does the data say about its IC50? Entry: `O=C1Nc2cc(Cl)c(Cl)cc2C2(CCCCC2)N1`
3700

What does the data say about its IC50? Entry: `CN1CCN(C(=O)c2cccc(-c3cc(Cl)c4c(c3)C3(CCCCC3)NC(=O)N4)c2)CC1`
40

What does the data say about its IC50? Entry: `O=C1Nc2c(I)cccc2C2(CCCCC2)N1`
6850

What does the data say about its IC50? Entry: `O=C1Nc2c(F)cccc2C2(CCCCC2)N1`
390

What does the data say about its IC50? Entry: `O=C1Nc2c(Br)cccc2C2(CCCCC2)N1`
60

What does the data say about its IC50? Entry: `O=C1Nc2ccc(Cl)c(Cl)c2C2(CCCCC2)N1`
600

What does the data say about its IC50? Entry: CC1CCC2(CC1)NC(=O)Nc1c(Br)cccc12 (centres undefined)
210

What does the data say about its IC50? Entry: `O=C1Nc2c(Br)cccc2C2(CCC2)N1`
1400

What does the data say about its IC50? Entry: `COc1cc(Cl)c2c(c1)C1(CCCCC1)NC(=O)N2`
160

What does the data say about its IC50? Entry: `O=C1Nc2ccccc2C2(CCCCC2)N1`
6600

What does the data say about its IC50? Entry: `COc1ccc2c(c1)C1(CCCCC1)NC(=O)N2`
3200

What does the data say about its IC50? Entry: `O=C1Nc2c(Cl)cc(Cl)cc2C2(CCCCC2)N1`
120

What does the data say about its IC50? Entry: `O=C1Nc2ccc(-c3ccccc3)cc2C2(CCCCC2)N1`
980

What does the data say about its IC50? Entry: `O=C1Nc2cc(Cl)ccc2C2(CCCCC2)N1`
2700

What does the data say about its IC50? Entry: `CCC1(CC)NC(=O)Nc2c(Br)cccc21`
6540

What does the data say about its IC50? Entry: `O=C1Nc2cccc(Cl)c2C2(CCCCC2)N1`
840

What does the data say about its IC50? Entry: `Cc1cccc2c1NC(=O)NC21CCCCC1`
790

What does the data say about its IC50? Entry: `O=C1Nc2c(C(F)(F)F)cccc2C2(CCCCC2)N1`
2960

What does the data say about its IC50? Entry: `O=C1Nc2c(Cl)cc(-c3ccccc3)cc2C2(CCCCC2)N1`
10

* * *

Assignment: determine reported IC50 for the given compounds.
assay.system: High affinity 3',5'-cyclic-AMP phosphodiesterase 7A (Homo sapiens, UniProt Q13946)
experimental.protocol: In vitro inhibition of human Phosphodiesterase 7A1 expressed in baculovirus infected Sf9 cells
Respond with the bare value in nM.

What does the data say about its IC50? Entry: `CN(C)CCNC(=O)c1cccc(-c2cc(Cl)c3c(c2)C2(CCCCC2)NC(=O)N3)c1`
20

What does the data say about its IC50? Entry: `O=C1Nc2c(Cl)cc(-c3cccnc3)cc2C2(CCCCC2)N1`
50

What does the data say about its IC50? Entry: `CN1CCN(C(=O)c2ccc(-c3cc(Cl)c4c(c3)C3(CCCCC3)NC(=O)N4)cc2)CC1`
10

What does the data say about its IC50? Entry: `CN(C)CCCNC(=O)c1ccc(-c2cc(Cl)c3c(c2)C2(CCCCC2)NC(=O)N3)cc1`
20

What does the data say about its IC50? Entry: `O=C1Nc2c(Cl)cc(-c3ccccn3)cc2C2(CCCCC2)N1`
30

What does the data say about its IC50? Entry: `O=C1Nc2c(Cl)cc(-c3cccc(C(=O)O)c3)cc2C2(CCCCC2)N1`
20

What does the data say about its IC50? Entry: `CN1CCN(C(=O)c2ccccc2-c2cc(Cl)c3c(c2)C2(CCCCC2)NC(=O)N3)CC1`
1520

What does the data say about its IC50? Entry: `O=C1Nc2c(Cl)cc(-c3ccncc3)cc2C2(CCCCC2)N1`
30

What does the data say about its IC50? Entry: `CN(C)CCNC(=O)c1ccc(-c2cc(Cl)c3c(c2)C2(CCCCC2)NC(=O)N3)cc1`
20

What does the data say about its IC50? Entry: `CN(C)CCCNC(=O)c1cccc(-c2cc(Cl)c3c(c2)C2(CCCCC2)NC(=O)N3)c1`
10

What does the data say about its IC50? Entry: `O=C1Nc2c(Cl)cc(-c3ccc(C(=O)O)cc3)cc2C2(CCCCC2)N1`
10

What does the data say about its IC50? Entry: `NC(=O)c1ccc(-c2cc(Cl)c3c(c2)C2(CCCCC2)NC(=O)N3)cc1`
20

* * *

assay.system: 3',5'-cyclic-AMP phosphodiesterase 4D (Homo sapiens, UniProt Q08499)
Sequence (Q08499 whole entry): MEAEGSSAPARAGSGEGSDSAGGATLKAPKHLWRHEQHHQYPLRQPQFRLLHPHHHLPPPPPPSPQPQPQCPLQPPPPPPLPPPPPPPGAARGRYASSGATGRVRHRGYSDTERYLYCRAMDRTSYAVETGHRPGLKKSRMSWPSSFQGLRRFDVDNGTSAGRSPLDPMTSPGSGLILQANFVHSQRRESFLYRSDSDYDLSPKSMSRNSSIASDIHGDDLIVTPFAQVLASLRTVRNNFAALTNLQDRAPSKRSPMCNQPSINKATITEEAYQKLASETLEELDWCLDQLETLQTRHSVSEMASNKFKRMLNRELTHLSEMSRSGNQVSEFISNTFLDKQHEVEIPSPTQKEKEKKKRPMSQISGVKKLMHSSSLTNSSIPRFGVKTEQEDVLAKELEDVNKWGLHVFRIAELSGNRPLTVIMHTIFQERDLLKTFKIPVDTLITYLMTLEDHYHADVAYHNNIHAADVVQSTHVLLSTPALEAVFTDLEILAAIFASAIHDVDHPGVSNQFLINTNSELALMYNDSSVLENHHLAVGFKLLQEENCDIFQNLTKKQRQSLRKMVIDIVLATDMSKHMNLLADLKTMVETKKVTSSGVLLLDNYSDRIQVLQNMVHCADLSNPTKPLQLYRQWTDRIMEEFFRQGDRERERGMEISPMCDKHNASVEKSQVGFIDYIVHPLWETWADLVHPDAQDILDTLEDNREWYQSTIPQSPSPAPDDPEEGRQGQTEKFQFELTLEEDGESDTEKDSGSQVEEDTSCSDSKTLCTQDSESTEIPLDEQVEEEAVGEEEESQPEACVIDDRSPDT
experimental.protocol: Inhibition of human Phosphodiesterase 4D3 expressed in baculovirus infected Sf9 cells
Assignment: determine reported IC50 for the given molecules.
Kindly format the answer as number then unit.

What does the data say about its IC50? Entry: `NC(=O)c1ccc(-c2cc(Cl)c3c(c2)C2(CCCCC2)NC(=O)N3)cc1`
690 nM

What does the data say about its IC50? Entry: `O=C1Nc2c(Cl)cc(-c3ccccc3)cc2C2(CCCCC2)N1`
1420 nM

* * *

Assignment: determine reported IC50 for the given molecules.
assay.system: cGMP-inhibited 3',5'-cyclic phosphodiesterase 3A (Homo sapiens)
Sequence (Q14432 whole entry): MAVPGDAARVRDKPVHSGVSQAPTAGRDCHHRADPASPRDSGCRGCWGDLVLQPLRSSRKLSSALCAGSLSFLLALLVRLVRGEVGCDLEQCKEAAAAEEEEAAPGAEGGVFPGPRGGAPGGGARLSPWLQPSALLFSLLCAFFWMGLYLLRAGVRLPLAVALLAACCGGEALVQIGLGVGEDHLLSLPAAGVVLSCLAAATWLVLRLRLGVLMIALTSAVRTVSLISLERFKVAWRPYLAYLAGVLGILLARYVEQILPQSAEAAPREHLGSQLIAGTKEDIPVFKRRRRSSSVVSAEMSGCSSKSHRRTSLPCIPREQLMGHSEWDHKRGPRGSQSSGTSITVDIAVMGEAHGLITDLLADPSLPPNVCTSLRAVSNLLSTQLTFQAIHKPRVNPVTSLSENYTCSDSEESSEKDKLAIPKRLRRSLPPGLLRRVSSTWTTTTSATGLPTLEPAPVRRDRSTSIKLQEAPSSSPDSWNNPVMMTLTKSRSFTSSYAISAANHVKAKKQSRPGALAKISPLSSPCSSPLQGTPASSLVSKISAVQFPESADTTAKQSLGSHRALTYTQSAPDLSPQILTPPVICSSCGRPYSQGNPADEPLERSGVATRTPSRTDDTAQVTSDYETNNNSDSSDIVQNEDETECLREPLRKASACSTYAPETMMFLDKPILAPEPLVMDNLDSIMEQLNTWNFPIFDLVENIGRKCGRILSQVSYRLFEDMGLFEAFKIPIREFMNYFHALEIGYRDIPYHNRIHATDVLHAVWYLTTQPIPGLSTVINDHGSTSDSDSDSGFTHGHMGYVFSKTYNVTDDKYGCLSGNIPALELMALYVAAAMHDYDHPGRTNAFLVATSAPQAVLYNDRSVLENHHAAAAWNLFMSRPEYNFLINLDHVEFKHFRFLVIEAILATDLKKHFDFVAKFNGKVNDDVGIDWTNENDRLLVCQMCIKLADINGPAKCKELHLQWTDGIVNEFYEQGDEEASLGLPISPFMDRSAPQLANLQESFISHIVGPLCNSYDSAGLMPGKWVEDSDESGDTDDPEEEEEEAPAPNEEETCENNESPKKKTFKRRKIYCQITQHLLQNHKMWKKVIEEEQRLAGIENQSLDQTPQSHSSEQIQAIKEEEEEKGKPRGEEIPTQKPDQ
experimental.protocol: In vitro inhibition of human Phosphodiesterase 3A3 expressed in baculovirus infected Sf9 cells
Respond with the bare value in µM.

Give the reported IC50 for `CN1CCN(C(=O)c2ccc(-c3cc(Cl)c4c(c3)C3(CCCCC3)NC(=O)N4)cc2)CC1` (system: cGMP-inhibited 3',5'-cyclic phosphodiesterase 3A (Homo sapiens)).
29.3

Give the reported IC50 for `O=C1Nc2c(Cl)cc(-c3ccncc3)cc2C2(CCCCC2)N1` (system: cGMP-inhibited 3',5'-cyclic phosphodiesterase 3A (Homo sapiens)).
11.2

Give the reported IC50 for `NC(=O)c1ccc(-c2cc(Cl)c3c(c2)C2(CCCCC2)NC(=O)N3)cc1` (system: cGMP-inhibited 3',5'-cyclic phosphodiesterase 3A (Homo sapiens)).
0.28

* * *

Assignment: determine reported IC50 for the given molecules.
assay.system: cGMP-specific 3',5'-cyclic phosphodiesterase (Homo sapiens, UniProt O76074)
experimental.protocol: In vitro inhibition of human Phosphodiesterase 5
Respond with the bare value in µM.

What does the data say about its IC50? Entry: `O=C1Nc2c(Cl)cc(-c3ccc(C(=O)O)cc3)cc2C2(CCCCC2)N1`
8.5

What does the data say about its IC50? Entry: `O=C1Nc2c(Cl)cc(-c3cccnc3)cc2C2(CCCCC2)N1`
19.3

What does the data say about its IC50? Entry: `CN1CCN(C(=O)c2cccc(-c3cc(Cl)c4c(c3)C3(CCCCC3)NC(=O)N4)c2)CC1`
52.4

What does the data say about its IC50? Entry: `O=C1Nc2c(Cl)cc(-c3ccncc3)cc2C2(CCCCC2)N1`
9.47

What does the data say about its IC50? Entry: `O=C1Nc2c(Cl)cc(-c3cccc(C(=O)O)c3)cc2C2(CCCCC2)N1`
12.6

* * *

assay.system: 3',5'-cyclic-AMP phosphodiesterase 4D (Homo sapiens)
experimental.protocol: In vitro inhibition of human Phosphodiesterase 4D3 expressed in baculovirus infected Sf9 cells
Assignment: determine reported pIC50 for the given molecules.
The quantity pIC50 is defined as the negative base-10 logarithm of the molar concentration.

What does the data say about its pIC50? Entry: `O=C1Nc2c(Cl)cc(-c3ccncc3)cc2C2(CCCCC2)N1`
6.00

What does the data say about its pIC50? Entry: `O=C1Nc2c(Cl)cc(-c3cccc(C(=O)O)c3)cc2C2(CCCCC2)N1`
6.13

What does the data say about its pIC50? Entry: `CN(C)CCNC(=O)c1cccc(-c2cc(Cl)c3c(c2)C2(CCCCC2)NC(=O)N3)c1`
5.80

What does the data say about its pIC50? Entry: `CN(C)CCCNC(=O)c1cccc(-c2cc(Cl)c3c(c2)C2(CCCCC2)NC(=O)N3)c1`
5.84

What does the data say about its pIC50? Entry: `O=C1Nc2c(Cl)cc(-c3ccc(C(=O)O)cc3)cc2C2(CCCCC2)N1`
6.33

What does the data say about its pIC50? Entry: `CN1CCN(C(=O)c2ccccc2-c2cc(Cl)c3c(c2)C2(CCCCC2)NC(=O)N3)CC1`
4.80

What does the data say about its pIC50? Entry: `CN(C)CCNC(=O)c1ccc(-c2cc(Cl)c3c(c2)C2(CCCCC2)NC(=O)N3)cc1`
5.79

What does the data say about its pIC50? Entry: `O=C1Nc2c(Cl)cc(-c3cccnc3)cc2C2(CCCCC2)N1`
5.81

What does the data say about its pIC50? Entry: `CN1CCN(C(=O)c2ccc(-c3cc(Cl)c4c(c3)C3(CCCCC3)NC(=O)N4)cc2)CC1`
5.77

What does the data say about its pIC50? Entry: `CN(C)CCCNC(=O)c1ccc(-c2cc(Cl)c3c(c2)C2(CCCCC2)NC(=O)N3)cc1`
5.82

What does the data say about its pIC50? Entry: `O=C1Nc2c(Cl)cc(-c3ccccn3)cc2C2(CCCCC2)N1`
5.74

What does the data say about its pIC50? Entry: `CN1CCN(C(=O)c2cccc(-c3cc(Cl)c4c(c3)C3(CCCCC3)NC(=O)N4)c2)CC1`
5.88
